The origin of these recorded values is patent US4764603A.

protocol-text: physchem
Format: physicochemical
condition-details: solid phase, half-life time at 75° C.
measurement-kind: half-life

Exercise: Quick check: half-life of C[S+](CC[C@H](N)C(=O)O)C[C@H]1O[C@@H](n2cnc3c(N)ncnc32)[C@H](O)[C@@H]1O (stereo partly shown) ?
Key: > 240 h
